Values from PubChem BioAssay

# TARGET: Calcium-dependent protein kinase 4 (Plasmodium falciparum (isolate 3D7))
# PROCEDURE DETAILS: PfCDPK4 kinase inhibitors, biochemical, TCAMS library (AID 1159588)
# ASSAY CONDITIONS: recombinant PfCDPK4, Kinase-Glo ATP depletion luminescence
Results with a measured potency or affinity are listed apart. Calls of active or inactive are those of the source. No cut-off is given here; in the data, nearly all actives have IC50 up to about 0.91 µM.
TEST READOUT: outcome

{"columns": ["COMPOUND", "RESULT"],
 "data": [
  ["CC(C)c1ccc(NC(=O)NCC2CCCN(CCCCCNC(=O)/C=C/c3ccc(Cl)c(Cl)c3)C2)cc1 (centres undefined)", "inactive"],
  ["Nc1nc2c(ncn2OC[C@H](CO)OCP(=O)(O)O)c(=O)[nH]1", "inactive"],
  ["c1ccc(COc2ccnc(NCCCOc3cccc(CN4CCCCC4)c3)c2)cc1", "inactive"],
  ["Cc1cc(C)c(C)c(OCCCON2C(N)=NC(N)=NC2(C)C)c1C", "inactive"],
  ["Oc1ccc(-c2ccccc2)cc1CN1CCCCCC1", "inactive"],
  ["CCCn1c(=N)c(C(=O)NCCc2ccccc2)cc2c(=O)n3cccc(C)c3nc21", "inactive"],
  ["COc1cc(Cc2cnc(N)nc2N)cc(OCCCOc2ccccc2)c1OC", "inactive"],
  ["C=CCn1c(Sc2ccc(C#N)c([N+](=O)[O-])c2)nnc1-c1cc(OC)cc(OC)c1", "inactive"],
  ["O=C(CCNc1ccnc(NCC2CCCCC2)n1)Nc1ccccc1", "inactive"],
  ["FC(F)(F)c1ccc2nc(-c3ccc(-c4ccc(CNCc5cnn(-c6ccccc6)n5)cc4)s3)[nH]c2c1", "inactive"],
  ["COc1ccc(-c2ccc(NC(=O)c3ccc(F)cc3)cc2)cc1CNC(C)C", "inactive"],
  ["COc1cccc(OC)c1-c1ccccc1NC(=O)N1CCCc2cc(C)ccc21", "inactive"],
  ["CN(C)c1ccc(C=Cc2ccc3ccccc3n2)c(Cl)c1", "inactive"],
  ["Cc1cccc2[nH]c(-c3cccc(-c4ccc(NC(=O)c5cccnc5)cc4)c3)nc12", "inactive"],
  ["Brc1cc(Br)c2c(c1)C(NCCCNC1CCNc3c(Br)cc(Br)cc31)CCN2 (centres undefined)", "inactive"],
  ["CN(C)CCOc1ccc(-n2c(-c3nonc3N)nc3cncc(-c4ccc(F)cc4)c32)cc1", "inactive"],
  ["FC(F)(F)c1ccc2nc(-c3cccc(-c4ccc(CNCC5CCCO5)cc4)c3)[nH]c2c1 (centres undefined)", "inactive"],
  ["Oc1ccccc1CCNCC1CCc2ccccc2C1 (centres undefined)", "inactive"],
  ["O=C(/C=C/c1ccc(Cl)c(Cl)c1)NCCCCCN1CCC(NC(=O)Nc2cccc(Cl)c2F)CC1", "inactive"],
  ["CC(Nc1ccc2c(c1)OCCO2)C(=O)Nc1cc(C(F)(F)F)ccc1N1CCOCC1 (centres undefined)", "inactive"],
  ["CCN(CC)C(=NCCCCCCN=C(/N=C(\\N)Nc1ccc(Cl)c(Cl)c1)N(CC)CC)/N=C(\\N)Nc1ccc(Cl)c(Cl)c1", "inactive"],
  ["Cc1cc(=O)[nH]c(/N=C(/N)NOCCCc2ccccc2)n1", "inactive"],
  ["CN1CCN(CCNc2c3ccccc3nc3ccc4ccccc4c23)CC1", "inactive"],
  ["COc1cc(F)c2ncc(Cl)c(CCN3CCC(NCc4ccc5c(c4)NC(=O)CO5)CC3)c2c1", "inactive"],
  ["Cc1cc(NCCC(=O)NCCOc2ccccc2)nc(NCCc2ccc(F)cc2)n1", "inactive"],
  ["O=C(CSc1nn(-c2ccccc2)c(=S)s1)c1c[nH]c2ccccc12", "inactive"],
  ["COc1ccccc1CCN(C)CCN1CCC(NC(=O)c2ccc(-c3ccc(C(F)(F)F)cc3)cc2)CC1", "inactive"],
  ["CCCCCCNC(=O)C1Cc2c([nH]c3ccc(C)cc23)C2(CCN(CCc3ccccc3)CC2)N1 (centres undefined)", "inactive"],
  ["Cc1cc(N2CCOCC2)nc(Nc2ccc(NC(=O)Nc3ccc(F)cc3)cc2)n1", "inactive"]
]}
